Origin of measurements: paper PMC4074512

Assay type: in vitro ADME, Canine
setup.conditions: dog, MDCK

{"columns": ["smiles.notation", "efflux ratio"],
 "data": [
  ["C#C[C@]1(CO)O[C@@H](n2cnc3c(N)nc(F)nc32)C[C@@H]1O", "~1"]
]}

----------
assay.summary: Bidirectional flux of EFdA in Caco-2 cell monolayers
Type: in vitro ADME
setup.conditions: human, Caco-2, pH 7.4

{"columns": ["smiles.notation", "efflux ratio at 2 h, 100 μM"],
 "data": [
  ["C#C[C@]1(CO)O[C@@H](n2cnc3c(N)nc(F)nc32)C[C@@H]1O", 5.7]
]}

----------
assay.summary: Bidirectional flux of EFdA in Caco-2 cell monolayers
Type: in vitro ADME
setup.conditions: human, Caco-2, pH 7.4

{"columns": ["smiles.notation", "efflux ratio at 2 h, 400 μM"],
 "data": [
  ["C#C[C@]1(CO)O[C@@H](n2cnc3c(N)nc(F)nc32)C[C@@H]1O", 2.5]
]}

----------
assay.summary: Bidirectional flux of EFdA in Caco-2 cell monolayers
Assay type: in vitro ADME
setup.conditions: human, Caco-2, pH 7.4

{"columns": ["smiles.notation", "efflux ratio at 2 h"],
 "data": [
  ["C#C[C@]1(CO)O[C@@H](n2cnc3c(N)nc(F)nc32)C[C@@H]1O", "> 2"]
]}
